biological target: UniProt:Q13370; assay: PDE inhibition, human recombinant PDE3B, [3H]cAMP SPA
Sequence (Q13370 whole entry): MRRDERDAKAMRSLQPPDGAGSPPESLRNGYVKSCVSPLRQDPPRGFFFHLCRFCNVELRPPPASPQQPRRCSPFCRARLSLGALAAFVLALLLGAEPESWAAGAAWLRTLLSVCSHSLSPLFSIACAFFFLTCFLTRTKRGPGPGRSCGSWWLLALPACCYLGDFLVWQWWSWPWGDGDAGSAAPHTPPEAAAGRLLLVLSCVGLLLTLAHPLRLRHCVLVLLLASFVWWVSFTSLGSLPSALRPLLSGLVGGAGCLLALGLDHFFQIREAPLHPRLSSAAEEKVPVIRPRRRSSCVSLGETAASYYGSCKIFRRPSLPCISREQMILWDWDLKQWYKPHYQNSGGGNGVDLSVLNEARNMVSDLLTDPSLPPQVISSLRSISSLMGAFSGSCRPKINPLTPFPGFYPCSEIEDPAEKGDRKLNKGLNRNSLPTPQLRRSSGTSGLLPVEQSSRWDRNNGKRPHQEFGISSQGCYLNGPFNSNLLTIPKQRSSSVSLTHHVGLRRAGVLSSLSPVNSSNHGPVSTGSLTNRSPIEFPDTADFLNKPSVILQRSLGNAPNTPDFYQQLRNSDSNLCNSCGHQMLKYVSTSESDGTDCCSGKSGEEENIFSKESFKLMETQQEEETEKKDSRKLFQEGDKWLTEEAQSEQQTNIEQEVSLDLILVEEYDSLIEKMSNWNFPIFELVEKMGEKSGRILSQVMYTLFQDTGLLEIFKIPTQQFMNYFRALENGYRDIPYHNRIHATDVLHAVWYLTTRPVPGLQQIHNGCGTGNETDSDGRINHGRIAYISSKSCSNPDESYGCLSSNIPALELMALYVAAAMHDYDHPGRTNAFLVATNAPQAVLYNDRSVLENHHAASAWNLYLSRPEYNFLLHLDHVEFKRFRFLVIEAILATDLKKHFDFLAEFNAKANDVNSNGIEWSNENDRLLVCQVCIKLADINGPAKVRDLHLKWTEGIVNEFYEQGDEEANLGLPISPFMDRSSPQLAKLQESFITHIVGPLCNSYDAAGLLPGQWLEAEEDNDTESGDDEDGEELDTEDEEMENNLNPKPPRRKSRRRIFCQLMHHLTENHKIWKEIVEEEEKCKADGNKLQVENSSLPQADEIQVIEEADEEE
recorded endpoint: IC50

# input Would you please give the reported IC50 of COc1ccc(Cc2nc3c(c(C)nn3C(CCCc3ccccc3)C(C)O)c(=O)[nH]2)cc1OC (stereo not shown) with UniProt:Q13370?
# output > 4 µM

====

target: PDE7B (Homo sapiens, UniProt Q9NP56); experiment: PDE inhibition, human recombinant PDE7B, [3H]cAMP SPA
Sequence (Q9NP56 whole entry): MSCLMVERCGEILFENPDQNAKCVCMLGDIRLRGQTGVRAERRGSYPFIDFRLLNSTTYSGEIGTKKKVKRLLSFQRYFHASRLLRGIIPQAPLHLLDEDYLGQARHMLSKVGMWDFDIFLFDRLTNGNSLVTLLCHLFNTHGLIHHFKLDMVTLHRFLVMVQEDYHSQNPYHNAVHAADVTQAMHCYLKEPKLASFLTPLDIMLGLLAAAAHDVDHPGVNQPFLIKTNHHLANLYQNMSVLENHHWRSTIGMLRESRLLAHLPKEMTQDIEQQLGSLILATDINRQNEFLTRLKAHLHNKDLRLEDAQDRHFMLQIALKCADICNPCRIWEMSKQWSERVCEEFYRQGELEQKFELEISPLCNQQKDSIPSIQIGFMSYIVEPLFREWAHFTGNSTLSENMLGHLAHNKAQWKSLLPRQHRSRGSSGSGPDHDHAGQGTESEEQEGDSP
recorded endpoint: IC50
I'd appreciate it if you included the unit after the number.

# input Find the measured IC50 of COc1ccc(Cc2nc3c(c(C)nn3C(CCCc3ccccc3)C(C)O)c(=O)[nH]2)cc1OC (stereo not shown) and report it.
# output 1600 nM

====

Biological target: PDE2 (Bos taurus, UniProt P14099)
Sequence (P14099 whole entry): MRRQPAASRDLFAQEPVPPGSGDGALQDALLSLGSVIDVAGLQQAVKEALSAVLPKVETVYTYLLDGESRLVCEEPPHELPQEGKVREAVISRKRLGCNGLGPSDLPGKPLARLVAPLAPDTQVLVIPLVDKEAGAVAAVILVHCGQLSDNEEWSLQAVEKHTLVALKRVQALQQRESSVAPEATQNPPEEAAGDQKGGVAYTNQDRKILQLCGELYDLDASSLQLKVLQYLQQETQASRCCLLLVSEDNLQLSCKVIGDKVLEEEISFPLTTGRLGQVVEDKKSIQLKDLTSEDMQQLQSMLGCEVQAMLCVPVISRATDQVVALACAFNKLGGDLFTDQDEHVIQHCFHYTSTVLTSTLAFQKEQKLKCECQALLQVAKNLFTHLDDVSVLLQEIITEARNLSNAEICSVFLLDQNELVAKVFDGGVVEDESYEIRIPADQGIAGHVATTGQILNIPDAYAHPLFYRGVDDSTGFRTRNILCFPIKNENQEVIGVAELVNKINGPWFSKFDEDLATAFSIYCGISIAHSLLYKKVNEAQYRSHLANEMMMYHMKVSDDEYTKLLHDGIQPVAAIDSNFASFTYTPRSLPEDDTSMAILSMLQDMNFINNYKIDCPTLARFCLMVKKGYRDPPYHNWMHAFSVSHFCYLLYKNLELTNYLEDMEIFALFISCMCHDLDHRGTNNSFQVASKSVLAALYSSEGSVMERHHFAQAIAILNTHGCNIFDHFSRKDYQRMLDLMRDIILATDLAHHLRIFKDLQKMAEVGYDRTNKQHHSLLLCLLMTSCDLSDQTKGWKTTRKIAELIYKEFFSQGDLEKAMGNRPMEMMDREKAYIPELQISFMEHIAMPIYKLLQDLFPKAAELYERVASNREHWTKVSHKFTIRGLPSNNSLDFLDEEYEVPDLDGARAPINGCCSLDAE
Assay: PDE inhibition, cGMP-stimulated PDE2 from bovine myocardium
Experimental: The PDE 2 which can be stimulated by cGMP is isolated from bovine myocardium. The PDE 1 which can be stimulated by Ca^2+ calmodulin is isolated from porcine aorta, porcine brain or, preferably, from bovine aorta. […] The enzymatic activity is determined in an assay mixture of 100 μl in 20 mM Tris/HCl buffer pH 7.5 which contains 5 mM MgCl2, 0.1 mg/ml bovine serum albumin and 800 Bq of either [^3H]-cAMP or [^3H]-cGMP. […] The substance concentration at which the reaction rate is reduced by 50% is measured. […]
recorded endpoint: pIC50
Numbers only, as −log10 of the molar value.

# input Return value of pIC50 for input COc1ccc(Cc2nc3c(c(C)nn3C(CCCc3ccccc3)C(C)O)c(=O)[nH]2)cc1OC (stereo not shown) , no commentary.
# output 8.15

====

molecular target: PDE5 (Homo sapiens, UniProt O76074); construct: b27 also lists porcine small intestine, porcine aorta and, preferably, bovine aorta); experiment: PDE inhibition, PDE5, [3H]cGMP SPA
recorded endpoint: pIC50
Give bare numbers, as −log10 of the molar value.

# input Enter measured pIC50, system PDE5 (Homo sapiens, UniProt O76074), for the molecule shown: COc1ccc(Cc2nc3c(c(C)nn3C(CCCc3ccccc3)C(C)O)c(=O)[nH]2)cc1OC (stereo not shown) [Example 1]
# output 6.52
